- System: c-Src
- Experiment Description: phosphorylation enrichment, bacterial display (enrichment ratio); higher = better substrate or ligand; peptides without Tyr show the background
Classify as follows. Reported phosphorylation enrichment greater than or equal to 0.4: condition met. Reported phosphorylation enrichment below: condition not met.

RLLVVYPWTQR [HBB_Y36] :: condition met
KSIDEYLKLVG [RASAL2_Y381_E379D] :: condition not met
CTTIHYNYMCT [TP53_Y234_N239T] :: condition met
GKTQQYDCKWF [BCR_Y751_YF] :: condition met
RSSGSYGGGGQ [HNRNPA1_Y341_P340S] :: condition not met
HLAQRYLIWEC [SCN5A_Y694_R689H] :: condition met
ALAHKYLGGGG [HBB_Y146_H147L] :: condition not met
FADTAYNYRHG [PAH_Y166_I164T] :: condition met
TAPYNYSYIFK [RAB14_Y8] :: condition met
GSPPPYRRRKR [MBD1_Y403] :: condition met
SCPANYFAFKI [FAM3D_Y65_P60S] :: condition met
RRFVFYFSFLL [PTEN_Y177_YF] :: condition met

---

- System: c-Src
- Experiment Description: phosphorylation enrichment, bacterial display (enrichment ratio); higher = better substrate or ligand; peptides without Tyr show the background
In this scheme, each record receives a class according to its phosphorylation enrichment; the ranges are band 1 = under 0.5, band 2 = from 0.5 up to 0.9, band 3 = 0.9 and over

ARMTNCGLPRY [TSPAN12_Y138_Y138C] :: band 1
HESEIYGKVCF [CSRP3_Y57_C58G_YF] :: band 3
STFVPYEIKVQ [L1CAM_Y784] :: band 1
VNYGAYINDFN [GLB1_Y488_K493N] :: band 2
CTTIHYNCMCN [TP53_Y234_Y236C] :: band 1
REGKIYEFNQV [ZNF665_Y162_H157R_YF] :: band 3
DSFATYFRWVL [H2BW1_Y84_R87W] :: band 3
DVSVVYSEVKT [FCRL4_Y493] :: band 3
KKLHKYNTQFQ [PIK3R1_Y452_E451K] :: band 1
DNAYQYMLTDR [MYH7_Y164] :: band 2
FLRTGYSIPFG [TGM1_Y370_V372I_YF] :: band 1
KELAPYDENCF [RPS19_Y48_W52C] :: band 2
TQIGQYGNGLK [MORC2_Y100] :: band 1

---

- Target Under Test: Grb2 SH2 (UniProt P62993)
- Sequence (P62993 whole entry, looked up): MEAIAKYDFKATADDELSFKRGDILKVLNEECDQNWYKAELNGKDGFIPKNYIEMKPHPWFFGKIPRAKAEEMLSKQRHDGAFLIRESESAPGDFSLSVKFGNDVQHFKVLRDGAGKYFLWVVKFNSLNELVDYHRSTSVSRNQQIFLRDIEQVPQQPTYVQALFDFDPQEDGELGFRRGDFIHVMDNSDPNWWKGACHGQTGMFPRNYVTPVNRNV
- Experiment Description: SH2 binding enrichment of the phosphorylated peptide, bacterial display (enrichment ratio); higher = better substrate or ligand; peptides without Tyr show the background
Measured Metric: SH2 binding enrichment

HFVFFYSFLLK [PTEN_Y178_R173H_YF] :: 2.43
QDLFLYQTHSE [PKHD1_Y255] :: 0.763
EEGESHVCSSD [DCX_Y125_Y125H] :: 1.25
PPGRSYSPYDY [TNS1_Y793] :: 0.502
DSFATYFRWVL [H2BW1_Y84_R87W] :: 1.28
FGHTFYNQAIM [MCCC2_Y196_R193H] :: 1.18
TLPAFYMGNFS [GLB1_Y552] :: 0.868

---

- Target Under Test: Fyn (UniProt P06241)
- Sequence (P06241 whole entry, looked up): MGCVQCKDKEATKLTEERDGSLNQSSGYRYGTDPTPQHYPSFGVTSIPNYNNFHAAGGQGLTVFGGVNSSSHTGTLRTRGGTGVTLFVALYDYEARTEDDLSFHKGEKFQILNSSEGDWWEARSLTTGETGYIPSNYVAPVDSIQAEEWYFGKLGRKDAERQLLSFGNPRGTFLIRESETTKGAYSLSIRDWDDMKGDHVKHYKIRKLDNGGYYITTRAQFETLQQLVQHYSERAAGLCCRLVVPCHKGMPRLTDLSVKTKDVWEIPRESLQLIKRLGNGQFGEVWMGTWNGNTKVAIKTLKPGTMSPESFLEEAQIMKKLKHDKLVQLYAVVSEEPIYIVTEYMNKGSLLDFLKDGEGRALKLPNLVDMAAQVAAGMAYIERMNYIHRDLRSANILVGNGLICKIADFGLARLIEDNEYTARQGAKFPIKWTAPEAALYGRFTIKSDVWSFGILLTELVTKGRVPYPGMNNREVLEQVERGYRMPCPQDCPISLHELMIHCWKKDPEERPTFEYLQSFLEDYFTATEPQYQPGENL
- Experiment Description: phosphorylation enrichment, bacterial display (enrichment ratio); higher = better substrate or ligand; peptides without Tyr show the background
Measured Metric: phosphorylation enrichment

MAPQMYEFHLP [NCAPD2_Y6] :: 0.506
PLAVPYLDKPP [JMJD7_Y31] :: 0.46
INSLKYAFNIS [EIF2B5_Y583_YF] :: 0.311
HLAQRYLIWEC [SCN5A_Y694_R689H] :: 0.953
LIYTNYEAGKD [GSTP1_Y112] :: 7.8
KPSLKYVTYGN [GALNTL5_Y404_G401S] :: 0.379
QMVGKYASSYM [AVPR2_Y124_M123K] :: 0.529
RSGIYYKPESL [L2HGDH_Y103_H98R] :: 2.43
TLKDVCDDGKF [RPS6KA3_Y483_Y483C_YF] :: 0.446
AQQPIYVRVEG [NLRP7_Y318] :: 2.18
FDRREYSRFEK [ITGB7_Y758_YF] :: 0.331
VDTAMYATMQR [TPO_Y55] :: 3.02
DVSVVYSEVKT [FCRL4_Y493] :: 4.99
LVSCTYQLARR [FGFR2_Y608_G613R] :: 0.699
IGSQRYKLGVR [RB1_Y446] :: 0.332
IGEGTYGVLYK [CDK2_Y15_V18L] :: 8.4
KVALPYKPFFF [POLE_Y100_YF] :: 0.44
QHVPDYRQNVY [PCDHGA1_Y890] :: 0.673
AEYGLYRAMVR [VSX2_Y222_G223R] :: 9.03
FGMQLYQKFMH [GRB14_Y347_N349K_YF] :: 1.56
EVVGRYSLHNA [MLH1_Y183_V185L] :: 0.382
VEDQFYCVDCF [FHL1_Y208_YF] :: 1.44
RVKPIYFHTQG [AR_Y916_K911R] :: 0.642
PHQTIYSALMI [FGF23_Y70] :: 12.7
YTDPYYDYEIE [ZC3H18_Y372_A368T] :: 1.96
CTTIHYNYMCT [TP53_Y234_N239T] :: 0.569
GRQGIYTENKR [GPR143_Y231_E235K] :: 0.372
PLDGEYFTLPI [TP53_Y327_Q331P] :: 9.28
HAKKNYGNSSV [HDX_Y197] :: 0.262
